Tested on: ALL-PO;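 further: growth inhibition of ALL-PO cells, read out by a cell viability assay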
assayExplanation: cells
Format: functional, cell-based
experimentalContext: Homo sapiens
Description: SANGER: Inhibition of human ALL-PO cell growth in a cell viability assay.
propertyLabel: IC50 (nM)
Numeric answer only, unit nM assumed.

Below, 2 compounds whose answers are already recorded.
1. COc1ccc(-c2ccc3c(N4CCOC[C@@H]4C)nc(N4CCOC[C@@H]4C)nc3n2)cc1CO ... 1440
2. O=C(NOCC1CC1)c1ccc(F)c(F)c1Nc1ccc(I)cc1Cl ... 4360

Query block: Param item = CC(=O)O[C@@]12CO[C@@H]1C[C@H](O)[C@@]1(C)C(=O)[C@H](O)C3=C(C)[C@@H](OC(=O)[C@H](O)[C@@H](NC(=O)OC(C)(C)C)c4ccccc4)C[C@@](O)([C@@H](OC(=O)c4ccccc4)[C@H]21)C3(C)C ; retrieve measured IC50.
Result block: 8.6

====

Tested on: T98G
assayExplanation: cells
Format: functional, cell-based, Homo sapiens
experimentalContext: Homo sapiens, T98G
Description: SANGER: Inhibition of human T98G cell growth in a cell viability assay.
propertyLabel: pIC50
When answering, recall that pIC50 equals minus log10 of the concentration in mol/L, and write that number alone.

Worked cases, pIC50 given:
1. C=CCNC1=C2C[C@@H](C)C[C@H](OC)[C@H](O)[C@@H](C)/C=C(\C)[C@H](OC(N)=O)[C@@H](OC)/C=C\C=C(/C)C(=O)NC(=CC1=O)C2=O [TANESPIMYCIN] ... 7.39
2. Cn1cncc1[C@@](N)(c1ccc(Cl)cc1)c1ccc2c(c1)c(-c1cccc(Cl)c1)cc(=O)n2C [TIPIFARNIB] ... 4.93

Query block: Requested field: pIC50. Item: O=C1N=C(NCc2cccs2)S/C1=C\c1ccc2ncccc2c1
Result block: 5.86

====

Tested on: WM-115
assayExplanation: cells
Type: functional, cell-based, Homo sapiens
experimentalContext: Homo sapiens, WM-115
Description: SANGER: Inhibition of human WM-115 cell growth in a cell viability assay.
# pIC50 per entry
The value called pIC50 is obtained by taking minus log10 of the concentration in mol/L.

1) CC(=O)O[C@@]12CO[C@@H]1C[C@H](O)[C@@]1(C)C(=O)[C@H](O)C3=C(C)[C@@H](OC(=O)[C@H](O)[C@@H](NC(=O)OC(C)(C)C)c4ccccc4)C[C@@](O)([C@@H](OC(=O)c4ccccc4)[C@H]21)C3(C)C [DOCETAXEL] ... 8.20

Consider the additional compound presented here.
Query block: // lookup pIC50 for COc1ccc(-c2ccc3c(N4CCOC[C@@H]4C)nc(N4CCOC[C@@H]4C)nc3n2)cc1CO [AZD-8055]
Result block: 6.16

====

System: DMS-79
assayExplanation: cells
Format: functional, cell-based
experimentalContext: Homo sapiens
Description: SANGER: Inhibition of human DMS-79 cell growth in a cell viability assay.
pIC50: −log10 of the molar value.
Overview of reported pIC50 across a group of compounds:

1. CN1CCN(CCOc2cc(OC3CCOCC3)c3c(Nc4c(Cl)ccc5c4OCO5)ncnc3c2)CC1 ... < 5.70
2. CN(c1ncccc1CNc1nc(Nc2ccc3c(c2)CC(=O)N3)ncc1C(F)(F)F)S(C)(=O)=O ... < 5.59
3. C=C1C(=O)O[C@@H]2C3O[C@]3(C)CC/C=C(\C)CC[C@@H]12 (some centres not stated) ... < 5.30
4. O=C(c1cc(Cc2n[nH]c(=O)c3ccccc23)ccc1F)N1CCN(C(=O)C2CC2)CC1 ... < 5.30
5. CS(=O)(=O)CCNCc1ccc(-c2ccc3ncnc(Nc4ccc(OCc5cccc(F)c5)c(Cl)c4)c3c2)o1 ... < 5.70

Query block: Recorded pIC50 for CN(Cc1cnc2nc(N)nc(N)c2n1)c1ccc(C(=O)N[C@@H](CCC(=O)O)C(=O)O)cc1 [METHOTREXATE] , please?
Result block: < 6.70

Query block: Which measured pIC50 value corresponds to COc1cc([C@@H]2c3cc4c(cc3[C@@H](O[C@@H]3O[C@@H]5CO[C@@H](C)O[C@H]5[C@H](O)[C@H]3O)[C@H]3COC(=O)[C@H]23)OCO4)cc(OC)c1O [ETOPOSIDE] ?
Result block: < 4.80

====

Form field: pIC50 (one value per entry).
System: CAL-72;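 further: cell viability assay measuring inhibition of proliferation in the CAL-72 cell line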
assayExplanation: cells
Type: functional, cell-based, Homo sapiens
experimentalContext: Homo sapiens, CAL-72
Description: SANGER: Inhibition of human CAL-72 cell growth in a cell viability assay.
pIC50: −log10 of the molar value.

1. CCC1=C[C@@H]2CN(C1)Cc1c([nH]c3ccccc13)[C@@](C(=O)OC)(c1cc3c(cc1OC)N(C)[C@H]1[C@@](O)(C(=O)OC)[C@H](OC(C)=O)[C@]4(CC)C=CCN5CC[C@]31[C@@H]54)C2 [VINORELBINE] ... < 7.19
2. COC(=O)CNC(=O)C(=O)OC ... 3.31
3. COc1ccc(-c2ccc3c(N4CCOC[C@@H]4C)nc(N4CCOC[C@@H]4C)nc3n2)cc1CO [AZD-8055] ... < 5.70
4. O=c1cc(-c2cccc3c2Sc2ccccc2S3)oc(N2CCOCC2)c1 [KU-55933] ... 5.26
5. CN(c1ncccc1CNc1nc(Nc2ccc3c(c2)CC(=O)N3)ncc1C(F)(F)F)S(C)(=O)=O [PF-00562271] ... < 5.59

Query block: What value of pIC50 has been reported for the following molecule? O=C(c1cc(Cc2n[nH]c(=O)c3ccccc23)ccc1F)N1CCN(C(=O)C2CC2)CC1 [OLAPARIB]
Result block: < 5.30

Query block: Entry COc1cc([C@@H]2c3cc4c(cc3[C@@H](O[C@@H]3O[C@@H]5CO[C@@H](C)O[C@H]5[C@H](O)[C@H]3O)[C@H]3COC(=O)[C@H]23)OCO4)cc(OC)c1O [ETOPOSIDE] : reported pIC50 = ?
Result block: < 4.80

====

Tested on: DU-4475
assayExplanation: cells
Type: functional, cell-based
experimentalContext: Homo sapiens
Description: SANGER: Inhibition of human DU-4475 cell growth in a cell viability assay.
pIC50: −log10 of the molar value.
propertyLabel: pIC50

1. COc1ccc(C2=N[C@@H](c3ccc(Cl)cc3)[C@@H](c3ccc(Cl)cc3)N2C(=O)N2CCNC(=O)C2)c(OC(C)C)c1 ... 5.55
2. CCOc1nc(NC(=O)Cc2cc(OC)ccc2OC)cc(N)c1C#N ... < 5.00

With those in mind, consider the next compound.
Query block: Sample Cc1ccc(Nc2nccc(N(C)c3ccc4c(C)n(C)nc4c3)n2)cc1S(N)(=O)=O — what was its pIC50?
Result block: < 5.10

====

Test system: LNCaP-Clone-FGC
assayExplanation: cells
Type: functional, cell-based, Homo sapiens
experimentalContext: Homo sapiens, LNCaP-Clone-FGC
Description: SANGER: Inhibition of human LNCaP-Clone-FGC cell growth in a cell viability assay.
pIC50: −log10 of the molar value.
Overview of recorded pIC50 for various molecules

Known pIC50 results, listed for orientation:
1) Cc1ccc(Nc2nccc(N(C)c3ccc4c(C)n(C)nc4c3)n2)cc1S(N)(=O)=O ... < 5.10
2) CN(Cc1cnc2nc(N)nc(N)c2n1)c1ccc(C(=O)N[C@@H](CCC(=O)O)C(=O)O)cc1 [METHOTREXATE] ... < 6.70
3) CCc1nc(N)nc(N)c1-c1ccc(Cl)cc1 ... < 4.70

Query block: Would you mind telling me what pIC50 value was observed for Cn1cc(C2=C(c3ccc(Cl)cc3Cl)C(=O)NC2=O)c2ccccc21 ?
Result block: < 5.00

====

# IC50 per entry
System: LK-2;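 further: growth inhibition of LK-2 cells, read out with a viability assay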
assayExplanation: cells
Assay type: functional, cell-based, Homo sapiens
experimentalContext: Homo sapiens, LK-2
Description: SANGER: Inhibition of human LK-2 cell growth in a cell viability assay.

1. Cc1ccc(Nc2nccc(N(C)c3ccc4c(C)n(C)nc4c3)n2)cc1S(N)(=O)=O ... 2650 nM
2. O=C(NOCC1CC1)c1ccc(F)c(F)c1Nc1ccc(I)cc1Cl ... > 10000 nM
3. Nc1ccn([C@@H]2O[C@H](CO)[C@@H](O)[C@@H]2O)c(=O)n1 ... 461 nM
4. C[C@]1(O)C[C@@H](c2nc(-c3ccc4ccc(-c5ccccc5)nc4c3)c3c(N)nccn32)C1 ... > 2560 nM
5. C=CCNC1=C2C[C@@H](C)C[C@H](OC)[C@H](O)[C@@H](C)/C=C(\C)[C@H](OC(N)=O)[C@@H](OC)/C=C\C=C(/C)C(=O)NC(=CC1=O)C2=O ... 183 nM

Query block: What value of measured IC50 is listed for COc1cc(F)c(F)c(Nc2ccc(I)cc2F)c1NS(=O)(=O)C1(CC(O)CO)CC1 (stereo not drawn) ?
Result block: > 5000 nM

Query block: I would be grateful if you could share the reported IC50 for CN(Cc1cnc2nc(N)nc(N)c2n1)c1ccc(C(=O)N[C@@H](CCC(=O)O)C(=O)O)cc1 [METHOTREXATE] .
Result block: > 200 nM

Query block: Consider the compound O=C(c1cc(Cc2n[nH]c(=O)c3ccccc23)ccc1F)N1CCN(C(=O)C2CC2)CC1 and give its measured IC50.
Result block: > 5000 nM

====

Reported IC50 by item:
System: BL-70
assayExplanation: SANGER: Inhibition of human BL-70 cell growth in a cell viability assay.
Format: functional, cell-based

Sample records with IC50:
1) C=C1C(=O)O[C@@H]2C3O[C@]3(C)CC/C=C(\C)CC[C@@H]12 (stereo partly drawn) ... > 5 µM
2) Cc1ccc(Nc2nccc(N(C)c3ccc4c(C)n(C)nc4c3)n2)cc1S(N)(=O)=O ... > 8 µM

Attention now shifts to the item below.
Query block: Which value of IC50 has been reported for CN(c1ncccc1CNc1nc(Nc2ccc3c(c2)CC(=O)N3)ncc1C(F)(F)F)S(C)(=O)=O in the records?
Result block: > 2.56 µM
